Target: Bevacizumab (Homo sapiens, UniProt P01857)
Construct: 0.5 mg/ml IgG in PBS pH 7.3; ligand immobilized on SEPHAR; Bevacizumab Yield; other: mass eluted (glycine pH 2.5) / mass injected; kd (dissociation constant, Langmuir isotherm); other: Bevacizumab 0.05-5 mg/ml in PBS pH 7.3, 25° C., at least 3 h; qm (maximum capacity); other: mg Bevacizumab per ml of resin; Langmuir isotherm; t0; fused on or other part: Humanized anti-VEGF-A VH domain joined N-terminally to the IGHG1 constant region (engineered, no UniProt entry)
Assay: Microtiter plate chromatography of resins: binding and elution of Bevacizumab
Settings: L55-73: estimated values based on the knowledge obtained from L01-L54
Protocol: Resins were assessed in packed mode by microtiter plate chromatography. For each column, approximately 30 μl of resin were transferred to a 384-well filter plate and sealed with appropriate top fits. […] Unbound protein was washed from columns with 5 cv of PBS prior to elution with 5 cv of glycine buffer at pH 2.5. […] Effluent fractions were collected in 384-well plates and concentrations of protein were analyzed by Bradford assay. […]
measurement_type: Bevacizumab Yield

>>> df
                                   molecule                       experimental_target  reported_result
0  NCCCNc1nc(-c2ccc(C(=O)Nc3nnc(-c4ccco4)s3)cc2)cs1 [Ligand L70]  Bevacizumab (Homo sapiens, UniProt P01857)             >80%
1  NCCCn1cnc2cc(C(=O)Nc3ncc(-c4ccco4)s3)ccc21 [Ligand L58]  Bevacizumab (Homo sapiens, UniProt P01857)             >80%
2  Cc1nc2cc(C(=O)Nc3nnc(-c4ccno4)s3)ccc2n1CCCN [Ligand L71]  Bevacizumab (Homo sapiens, UniProt P01857)             >80%
